Assayed target: UniProt P00772
Sequence (P00772 27-266): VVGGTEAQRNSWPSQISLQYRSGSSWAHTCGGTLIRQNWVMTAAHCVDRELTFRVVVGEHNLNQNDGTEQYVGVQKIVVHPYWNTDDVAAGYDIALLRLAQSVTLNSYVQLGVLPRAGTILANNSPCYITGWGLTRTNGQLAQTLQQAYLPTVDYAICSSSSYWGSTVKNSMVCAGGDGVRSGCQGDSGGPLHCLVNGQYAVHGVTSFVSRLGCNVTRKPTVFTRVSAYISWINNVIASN
pIC50: −log10 of the molar value.
Measured parameter: pIC50

- Molecule: "C=C[C@@H]1C[C@]1(NC(=O)[C@@H]1C[C@@](O)(c2ccc(-c3ccccc3)cc2)CN1C(=O)[C@@H](NC(=O)OC(C)(C)C)C(C)(C)C)C(=O)NS(=O)(=O)C1CC1 [Compound 3]"
  Reported result: "< 4.00"
